Source: patent US9051270B2

Here, each record is paired with measured HLM (% remaining @ 30 minutes) data.
- procedure.text: Microsomal stability assay, human liver microsomes (HLM)
- Type: in vitro ADME
- protocol.conditions: human liver microsomes 0.5 mg/mL, 1 uM substrate, 2 mM NADPH, 37° C., referenced against time zero control
Just the number please, in %, no unit attached.

Examples from the recorded data:
O=C(Nc1cc[nH]c(=O)c1)c1cc(C(F)(F)F)ccc1Oc1ccccc1OC(F)F : 97
O=C(Nc1cc[nH]c(=O)c1)c1cc(C(F)(F)F)ccc1Oc1ccc(OC(F)(F)F)cc1 : 100
Cc1cc(F)ccc1Oc1cc(C(F)(F)F)ccc1C(=O)Nc1cc[nH]c(=O)c1 : 93

Value lookup for HLM (% remaining @ 30 minutes); key = O=C(Nc1cc[nH]c(=O)c1)c1c(Oc2ccc(F)cc2F)cc(C(F)(F)F)cc1C(F)(F)F
103

----------
Reported pIC50 is given for each of the following compounds.
- target.under.test: human Nav1.8 (Homo sapiens (Human))
- procedure.text: E-VIPR optical membrane potential assay with electrical stimulation
- protocol.conditions: HEK cells expressing human Nav1.8
- Procedure: Sodium channels are voltage-dependent proteins that can be activated by inducing membrane voltage changes by applying electric fields. […] 7) Read Plate on E-VIPR. […] Data was analyzed and reported as normalized ratios of emission intensities measured in the 460 nm and 580 nm channels. […] The data was further reduced by calculating the initial (Ri) and final (Rf) ratios. […] The response to the stimulus R=Rf/Ri was then calculated and reported as a function of time. […]
Just so you know, pIC50 here is -log10 of the concentration in molar units; reply with that number alone.

O=C(Nc1cc[nH]c(=O)c1)c1ccc(C(F)(F)F)cc1Oc1ccc(F)cc1F : 7.30
O=C(Nc1cc[nH]c(=O)c1)c1cc(Cl)ccc1Oc1ccc(F)cc1Cl : 7.43
COc1c(F)cccc1Oc1ccc(C(F)(F)F)cc1C(=O)Nc1cc[nH]c(=O)c1 : 7.52
Cc1ccccc1Oc1ccc(OC(F)(F)F)cc1C(=O)Nc1cc[nH]c(=O)c1 : 7.00
Cc1ncccc1Oc1cc(C(F)(F)F)ccc1C(=O)Nc1cc[nH]c(=O)c1 : 5.42
CCCOc1ccccc1Oc1ccc(C(F)(F)F)cc1C(=O)Nc1cc[nH]c(=O)c1 : 7.47

Under human Nav1.8 (Homo sapiens (Human)): pIC50 value of O=C(Nc1cc[nH]c(=O)c1)c1ccc(C(F)(F)F)cc1Oc1ccc(F)cc1Cl ?
7.54

Reported pIC50 for human Nav1.8 (Homo sapiens (Human)), given CC1(C)CC1COc1ccc(OC(F)(F)F)cc1C(=O)Nc1cc[nH]c(=O)c1 (stereo not drawn) ?
4.82

Write down the reported pIC50 of CC(C)c1ccc(Oc2ccc(F)cc2C(=O)Nc2cc[nH]c(=O)c2)cc1 , test system: human Nav1.8 (Homo sapiens (Human)).
5.29

# returns recorded pIC50 (system: human Nav1.8 (Homo sapiens (Human))) for COc1ccc(Oc2cc(C(F)(F)F)ccc2C(=O)Nc2cc[nH]c(=O)c2)c(Cl)c1F
6.05

Notebook: pull reported pIC50 for human Nav1.8 (Homo sapiens (Human)), entry CC(C)(C)c1ccc(C(=O)Nc2ccc(=O)[nH]c2)c(Oc2ccc(C(F)(F)F)nc2)c1
6.19

Give recorded pIC50 with human Nav1.8 (Homo sapiens (Human)) for the following compound: CCCOc1ccc(Oc2ccc(F)cc2C(=O)Nc2cc[nH]c(=O)c2)cc1
6.81

What value of pIC50 on human Nav1.8 (Homo sapiens (Human)) does O=C(Nc1cc[nH]c(=O)c1)c1cc(C(F)(F)F)ccc1Oc1ccc(Cl)cc1F have?
7.06

Lab note: need pIC50 for COc1ccc(Oc2ccc(C(F)(F)F)cc2C(=O)Nc2cc[nH]c(=O)c2)c(C)c1 on human Nav1.8 (Homo sapiens (Human)), anyone have it?
7.74

Please tell me: pIC50 of COc1ccc(Oc2ccc(F)cc2C(=O)Nc2cc[nH]c(=O)c2)cc1 , system human Nav1.8 (Homo sapiens (Human))?
5.94

----------
- target.under.test: human Nav1.8 (Homo sapiens (Human), UniProt Q9Y5Y9)
- Sequence (Q9Y5Y9 whole entry): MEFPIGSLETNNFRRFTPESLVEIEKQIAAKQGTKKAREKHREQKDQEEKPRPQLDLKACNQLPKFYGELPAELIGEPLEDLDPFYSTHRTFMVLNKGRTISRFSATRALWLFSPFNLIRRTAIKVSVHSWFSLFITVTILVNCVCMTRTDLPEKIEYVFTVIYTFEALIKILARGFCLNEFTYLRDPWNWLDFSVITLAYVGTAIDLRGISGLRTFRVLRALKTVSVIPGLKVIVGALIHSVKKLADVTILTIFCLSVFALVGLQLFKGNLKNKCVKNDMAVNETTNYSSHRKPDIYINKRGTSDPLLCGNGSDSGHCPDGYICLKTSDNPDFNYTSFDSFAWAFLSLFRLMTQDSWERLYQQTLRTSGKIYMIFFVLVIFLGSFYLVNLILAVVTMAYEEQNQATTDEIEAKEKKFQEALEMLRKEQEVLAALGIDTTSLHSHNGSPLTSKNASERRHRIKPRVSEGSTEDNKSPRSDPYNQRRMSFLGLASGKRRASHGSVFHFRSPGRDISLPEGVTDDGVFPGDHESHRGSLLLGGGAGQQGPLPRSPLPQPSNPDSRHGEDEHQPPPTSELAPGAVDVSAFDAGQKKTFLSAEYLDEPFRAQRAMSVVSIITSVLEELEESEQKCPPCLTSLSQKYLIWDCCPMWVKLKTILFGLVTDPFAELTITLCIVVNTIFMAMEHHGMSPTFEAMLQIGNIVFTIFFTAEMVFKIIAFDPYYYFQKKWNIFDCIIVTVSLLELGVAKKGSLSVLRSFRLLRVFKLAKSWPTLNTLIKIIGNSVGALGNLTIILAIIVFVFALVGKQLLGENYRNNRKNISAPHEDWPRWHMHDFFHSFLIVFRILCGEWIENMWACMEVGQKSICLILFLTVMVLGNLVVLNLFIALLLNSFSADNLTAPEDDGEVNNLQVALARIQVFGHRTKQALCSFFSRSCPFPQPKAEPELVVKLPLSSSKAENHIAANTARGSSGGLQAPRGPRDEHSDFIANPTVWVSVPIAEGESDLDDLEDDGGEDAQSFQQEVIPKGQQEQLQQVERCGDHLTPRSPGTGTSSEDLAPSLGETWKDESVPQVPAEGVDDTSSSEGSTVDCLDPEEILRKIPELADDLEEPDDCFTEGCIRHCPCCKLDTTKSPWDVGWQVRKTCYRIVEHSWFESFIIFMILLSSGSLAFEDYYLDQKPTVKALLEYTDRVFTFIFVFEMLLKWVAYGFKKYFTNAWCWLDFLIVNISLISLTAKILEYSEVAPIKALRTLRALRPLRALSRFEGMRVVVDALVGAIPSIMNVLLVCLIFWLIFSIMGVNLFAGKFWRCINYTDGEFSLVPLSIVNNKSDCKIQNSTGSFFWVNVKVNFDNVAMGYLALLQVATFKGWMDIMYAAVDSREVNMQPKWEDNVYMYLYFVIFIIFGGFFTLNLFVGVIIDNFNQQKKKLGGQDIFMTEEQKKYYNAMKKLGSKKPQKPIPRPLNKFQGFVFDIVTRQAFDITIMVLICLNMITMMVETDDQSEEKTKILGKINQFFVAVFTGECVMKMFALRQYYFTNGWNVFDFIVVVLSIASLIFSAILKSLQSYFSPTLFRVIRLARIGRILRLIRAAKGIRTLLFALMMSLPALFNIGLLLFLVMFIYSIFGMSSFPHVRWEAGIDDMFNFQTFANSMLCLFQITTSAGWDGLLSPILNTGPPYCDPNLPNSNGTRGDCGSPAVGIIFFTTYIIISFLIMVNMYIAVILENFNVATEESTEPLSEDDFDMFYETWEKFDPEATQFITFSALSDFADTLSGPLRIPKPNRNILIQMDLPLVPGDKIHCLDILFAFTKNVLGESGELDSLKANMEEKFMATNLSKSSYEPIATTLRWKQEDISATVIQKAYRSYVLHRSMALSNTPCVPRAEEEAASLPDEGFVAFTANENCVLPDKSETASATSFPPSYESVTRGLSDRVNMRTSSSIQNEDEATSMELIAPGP
- procedure.text: E-VIPR optical membrane potential assay with electrical stimulation
- protocol.conditions: HEK cells expressing human Nav1.8
pIC50: −log10 of the molar value.
Would you mind labelling by pIC50? At or over 7 is Yes, under is No.

Consider the worked cases shown below.
O=C(Nc1cc[nH]c(=O)c1)c1cc(C(F)(F)F)ccc1Oc1ccccc1 [Compound 32] : No
O=C(Nc1cc[nH]c(=O)c1)c1cc(OC(F)(F)F)ccc1OCCC(F)(F)F [Compound 138] : No
CC1(C)CC1COc1ccc(C(F)(F)F)cc1C(=O)Nc1cc[nH]c(=O)c1 (stereo not drawn) [Compound 134] : No

Has O=C(Nc1cc[nH]c(=O)c1)c1cc(C(F)(F)F)ccc1Oc1ccc(OC(F)(F)F)cc1 [Compound 72] a recorded pIC50 greater than or equal to 7?
Yes

Quick check: does COc1cc(F)ccc1Oc1cc(C(F)(F)F)cc(C(F)(F)F)c1C(=O)Nc1cc[nH]c(=O)c1 [Compound 154] have pIC50 greater than or equal to 7?
Yes

Decide: pIC50 of Cc1cccc(F)c1Oc1ccc(OC(F)(F)F)cc1C(=O)Nc1cc[nH]c(=O)c1 [Compound 39] >= 7?
No

Could you please find out whether CC(C)COc1ccc(C(F)(F)F)cc1C(=O)Nc1cc[nH]c(=O)c1 [Compound 131] has pIC50 that meets 7 or exceeds it?
No

Reported pIC50 reaches at least 7 for O=C(Nc1ccc(=O)[nH]c1)c1cc(C(F)(F)F)ccc1Oc1ccc(F)cc1 [Compound 4] ?
No

hey, is pIC50 for this one >= 7? O=C(Nc1cc[nH]c(=O)c1)c1cc(C(F)(F)F)ccc1Oc1ccc(OC(F)F)cc1 [Compound 73]
Yes

Kindly determine if pIC50 recorded for CC(C)(C)Oc1ccc(Oc2ccc(F)cc2C(=O)Nc2cc[nH]c(=O)c2)cc1 [Compound 97] is above or exactly 7.
No

Given O=C(Nc1cc[nH]c(=O)c1)c1cc(C(F)(F)F)ccc1Oc1ccccc1OC(F)F [Compound 76] , state whether its pIC50 is at least 7.
Yes

# check: pIC50 of O=C(Nc1cc[nH]c(=O)c1)c1ccc(C(F)(F)F)cc1Oc1ccc(OC(F)(F)F)cc1 [Compound 79] is greater than or equal to 7
Yes

Could you please find out whether O=C(Nc1cc[nH]c(=O)c1)c1cc(OC(F)(F)F)ccc1OC1CCCCC1 [Compound 137] has pIC50 that meets 7 or exceeds it?
No

Check if pIC50 >= 7 (inclusive). Item: N#Cc1ccc(Oc2ccc(C(F)(F)F)cc2C(=O)Nc2cc[nH]c(=O)c2)cc1 [Compound 25]
No

Please tell me: is the compound Cc1cc(F)ccc1Oc1cc(C(F)(F)C(F)(F)F)ccc1C(=O)Nc1cc[nH]c(=O)c1 [Compound 112] at or over 7 in terms of pIC50?
Yes

Check this compound for pIC50 at or above 7: O=C(Nc1cc[nH]c(=O)c1)c1ccc(C(F)(F)F)cc1OCc1cc(F)ccc1O [Compound 159]
No

Record O=C(Nc1cc[nH]c(=O)c1)c1ccc(C(F)(F)F)cc1Oc1ccc(C(F)(F)F)nc1 [Compound 144] ; criterion: pIC50 no lower than 7. Met?
No

Assess whether reported pIC50 for O=C(Nc1cc[nH]c(=O)c1)c1ccc(C(F)(F)F)cc1Oc1ccc(OC(F)F)cc1 [Compound 82] sits at 7 or higher.
Yes

Please tell me: is the compound O=C(Nc1cc[nH]c(=O)c1)c1cc(F)ccc1Oc1ccccc1 [Compound 95] at or over 7 in terms of pIC50?
No

----------
- target.under.test: human Nav1.8 (Homo sapiens (Human), UniProt Q9Y5Y9)
- procedure.text: E-VIPR optical membrane potential assay with electrical stimulation
- protocol.conditions: HEK cells expressing human Nav1.8
- Protocol: Sodium channels are voltage-dependent proteins that can be activated by inducing membrane voltage changes by applying electric fields. […] 7) Read Plate on E-VIPR. […] Data was analyzed and reported as normalized ratios of emission intensities measured in the 460 nm and 580 nm channels. […] The data was further reduced by calculating the initial (Ri) and final (Rf) ratios. […] The response to the stimulus R=Rf/Ri was then calculated and reported as a function of time. […]
Overview of reported IC50 across a group of compounds:
Answer with a number only, understood to be in nM.

Take a look at these entries with their results.
O=C(Nc1cc[nH]c(=O)c1)c1ccc(C(F)(F)F)cc1OC1CCCCC1 [Compound 128] : 560
O=C(Nc1cc[nH]c(=O)c1)c1ccc(C(F)(F)F)cc1OCC1CC1(F)F (stereo not drawn) [Compound 126] : 1400

I'm curious: which IC50 was measured for Cc1ncccc1Oc1ccc(C(F)(F)F)cc1C(=O)Nc1cc[nH]c(=O)c1 [Compound 150] tested on human Nav1.8 (Homo sapiens (Human), UniProt Q9Y5Y9)?
6600
